- CONDITION_DESCRIPTION: rat; liver microsomes; pH 7.4; 15.0 min; 1.0 µM
The following compounds are listed with their measured half-life values.
Form entry: value (min) — number only.

Prompt: # half-life lookup, item Cc1cccc(-n2cnc3cc(C(=O)N4CCCCCC4)ccc32)c1
Response: 2.9

Prompt: I would be grateful if you could share the reported half-life for Cc1ccc(S(=O)(=O)Nc2ccccc2C(=O)Nc2ccc(-c3ccccc3)cn2)cc1 .
Response: 4.9

Prompt: Using the record for Cn1ccc2c(C(=O)NCc3cccnc3)nc(-c3ccc(CO)cc3)cc21 , report its half-life.
Response: 15.7

----------
The entries below come with measured half-life values attached.
- CONDITION_DESCRIPTION: rat; liver microsomes; pH 7.4; 15.0 min; 1.0 µM
Express your answer in min, writing the number without its unit.

Known half-life results, listed for orientation:
COc1ccc(NS(=O)(=O)c2ccc(C)cc2)c(C(=O)Nc2nc(-c3ccccc3)cs2)c1 | 4.5
COc1cccc(Nc2nc(-c3ccncc3)nc3ccccc23)c1 | 4.3
COc1ccc(OCc2ccc(-c3nc(C#N)c(NC(C)c4ccccc4)o3)o2)cc1 (stereo not given) | 4.14
Oc1ccc(NCc2ccccc2OCc2ccccc2Cl)cc1 | 2.03
O=C(Nc1ccc([S+](=O)([O-])Nc2nccs2)cc1)c1ccccn1 | 2.4

Consider the record given below.
Prompt: Dear colleague, I am looking for the recorded half-life of the following compound: CCC(CC)C(=O)NC[C@@H]1C=C(C)[C@H](Cc2nc3c(C)cccc3[nH]2)C[C@H]1C(C)C
Response: 1.12

----------
- CONDITION_DESCRIPTION: rat; liver microsomes; pH 7.4; 15.0 min; 1.0 µM
Listing: log10(half-life) of selected molecules
Form field - Quantity: half-life; Unit: min; Scale: log10

NC(=O)C1CCN(c2nc(-c3cc4ccccc4o3)cs2)CC1 | 0.62
Cc1ccc2oc3c(c(=O)c2c1)C(c1cccc(O)c1)N(CCCN1CCOCC1)C3=O (stereo not given) | 0.98
NC(=O)C1CCN(c2nccc(-c3ccc4c(c3)OCCO4)n2)CC1 | 0.23
Cc1cccc(C)c1C(=O)Nc1cccc([S+](=O)([O-])N2CCCCCC2)c1 | 0.20
O=C(Nc1ccc(Oc2ccnc3[nH]ccc23)c(F)c1)c1cccn(-c2ccc(F)cc2)c1=O | 1.12
O=C(NCc1cccc(C(F)(F)F)c1)c1ccc(CN2CCCCC2)cc1 | 1.18
Cc1cccc(S(=O)(=O)c2cn(Cc3ccccc3)c3cc(N4CCCC(C)C4)c(F)cc3c2=O)c1 (stereo not given) | 0.30
CC(C)N(CCCNC(=O)Nc1ccc(C(C)(C)C)cc1)C[C@H]1O[C@@H](n2cc(Br)c3c(N)ncnc32)[C@H](O)[C@H]1O | 0.39
CCCOC(=O)c1ccc(Oc2c(-c3ccc(O)cc3O)n[nH]c2C)cc1 | 0.48
Cc1ccc(S(=O)(=O)Nc2ccccc2Nc2nc(-c3ccccc3)cs2)cc1 | 0.23

Prompt: Entry Cc1nn(CCc2nc(-c3ccc(OC(F)F)cc3)cs2)c2[nH]c(=O)cc(C(F)(F)F)c12 has what log10(half-life)?
Response: 0.84

Prompt: Find the recorded log10(half-life) belonging to Cc1n[nH]c(C)c1CCc1nc2c3ccccc3nc(SCC(=O)Nc3ccc(F)cc3)n2n1 and report it.
Response: 0.43

Prompt: So what does the record say about log10(half-life) for CC(=O)c1c(C)[nH]c(C(=O)Nc2cccc(S(=O)(=O)N3CCOCC3)c2)c1C ?
Response: 1.23

Prompt: // returns reported log10(half-life) for input CC(=O)c1ccc(-c2csc(N3CCC(C(N)=O)CC3)n2)cc1
Response: 0.64

Prompt: Query: log10(half-life); subject: Cc1ccc(S(=O)(=O)Nc2cnccc2C(=O)Nc2nc(-c3ccc4c(c3)CCCC4)cs2)cc1
Response: 0.36

Prompt: Name the recorded log10(half-life) for Cc1ccc(-c2csc(NC(=O)c3ccncc3NS(=O)(=O)c3ccc(C)cc3)n2)cc1 .
Response: 0.86

----------
Entries and their half-life
- CONDITION_DESCRIPTION: rat; liver microsomes; pH 7.4; 15.0 min; 1.0 µM
The response must be a number in min with no trailing unit.

Please review the following examples before continuing.
O=[S+]([O-])(Nc1ccc(-c2ccccc2)cc1)c1ccc(NCc2ccc(Cl)cc2O)cc1 | 18
Cc1ccc(S(=O)(=O)Nc2cnccc2C(=O)Nc2nc(-c3cc4ccccc4o3)cs2)cc1 | 20
Cc1ccc(NC(=O)Nc2cc3c(cc2N2CCCCC2)n(C)c(=O)n3C)cc1Cl | 6.3
COc1cc([C@@H](CC(=O)O)c2ccc(C)c(CN3C[C@@H](C)Oc4ccccc4S3(=O)=O)c2)cc2nnn(C)c12 | 16
CN1CCN(C(c2ccccc2)c2ccc(Cl)cc2)CC1 (centres undefined) | 3
Fc1cc(Nc2nc(-c3ccncc3)nc3ccccc23)ccc1-c1cn[nH]c1 | 19

# input for lookup
Prompt: Bench note: what half-life did Cc1ccc(NS(=O)(=O)c2c(C)[nH]c(C)c2C(=O)N2CCCC2)cc1Cl show?
Response: 1.03

----------
- CONDITION_DESCRIPTION: rat; liver microsomes; pH 7.4; 15.0 min; 1.0 µM
half-life below 5 min gives f; half-life at or above it gives t.

Cc1ccc(-c2nnc(N3CCC(C(N)=O)CC3)s2)cc1 | t
CC(Cc1ccc(O)cc1)NCC(O)c1cc(O)cc(O)c1 (stereo unspecified) | t
CN(C)C(=O)c1nc(-c2ccc(Cl)cc2Cl)c2cnccn12 | t
COc1cc2nccc(Oc3ccc(NC(=O)Nc4cc(C)on4)c(Cl)c3)c2cc1OC | t
COc1ccc(-c2nc(CS(=O)CC(=O)N3CCC4(CC3)OCCO4)c(C)o2)cc1 (stereo unspecified) | t
c1coc(-c2nc3ccncc3[nH]2)c1 | t
O=C(NCCc1nc2ccccc2n1CCO)C1CCCCC1 | t
CC(=O)OC[C@]12CCC(C)=C[C@H]1O[C@@H]1[C@H](O)[C@@H](OC(C)=O)[C@@]2(C)[C@]12CO2 | t
O=C(Nc1ccc2oc(-c3cccnc3)nc2c1)c1ccc(-c2cccc(Cl)c2)o1 | t
CNC(=O)c1nn(C)c2c1C(C)(C)Cc1cnc(Nc3ccc(N4CCN(C)CC4)cc3)nc1-2 | t

Prompt: Is reported half-life greater than or equal to 5 min here: c1ccc(CNc2cc3c(cn2)CN(Cc2cccnc2)CCN3)cc1
Response: t

Prompt: Check if half-life >= 5 min (inclusive). Item: Cc1ccc2nc(-c3cc(NC(=O)c4ccc5c(c4)OCCO5)ccc3Cl)oc2c1
Response: t

Prompt: // inclusive: half-life at least 5 min? input: Cc1ccnc(NC(=S)N2CCN(c3ncc(C(F)(F)F)cc3Cl)CC2)c1
Response: t

Prompt: Quick check, half-life >= 5 min? CC(C)Oc1ccc(-c2csc(N3CCC(C(N)=O)CC3)n2)cc1
Response: t

Prompt: Hi team, for O=C(Nc1nc(-c2ccccc2)cs1)c1ccncc1NS(=O)(=O)c1ccc(F)cc1 , is the recorded half-life at or above 5 min?
Response: t

Prompt: In plain terms: is recorded half-life at least 5 min for N=c1c2c(n(Cc3ccccc3)c3c1CCC3)CCC2 ?
Response: f

Prompt: Identify whether the reported half-life of the following molecule is 5 min or greater: Cc1c(CN(C)c2cc(C3CC(O)C3)nc(N)n2)[nH]c2ccccc12 (stereo unspecified)
Response: t

Prompt: Please check the record COc1cccc(CNc2ccc(S(=O)(=O)Nc3ccc(C)nc3)cc2)c1O and state if its half-life is at or above 5 min.
Response: t

Prompt: I'd appreciate it if you could say whether Nc1nc(Nc2ccc(S(N)(=O)=O)cc2)nn1C(=O)c1c(F)cccc1F has half-life at least equal to 5 min.
Response: t

Prompt: Is half-life for CCN1C(=O)c2ccccc2S(=O)c2ccc(C(=O)NCc3ccc(OC)cc3)cc21 (stereo unspecified) at or above 5 min?
Response: t

Prompt: Is the recorded value of half-life equal to or greater than 5 min for this molecule? O=C1C2=C(Nc3ccccc3SC2c2ccco2)c2ccccc21 (stereo unspecified)
Response: f

Prompt: Can COc1cc(O)c([C@H](CC(=O)N2CC(C)CC(C)C2)c2ccc3c(c2)OCO3)c(OC)c1 (stereo partly specified) be said to have half-life at or above 5 min?
Response: f

Prompt: Threshold query (half-life >= 5 min) on CSc1ccc(/C=C/c2nc3ccccc3n2S(=O)(=O)c2cccc(Cl)c2)cc1
Response: f

Prompt: Please indicate if the recorded half-life for COc1ccc(Cn2c(CCC(=O)Nc3cc(C)cc(C)c3)nc3cccnc32)cc1 meets or exceeds 5 min.
Response: f

Prompt: Quick check, half-life >= 5 min? CCOc1ccc(CCNC(=O)c2cccc(C(=O)c3ccccc3)c2)cc1OCC
Response: f

Prompt: Quick check: does Cc1sc(NC(=O)Cc2ccc3c(c2)OCO3)nc1-c1ccc2c(c1)CCN2C(=O)c1ccccc1F have half-life greater than or equal to 5 min?
Response: t

Prompt: Quick check: does OCCN1CCN(CCCN2c3ccccc3Sc3ccc(Cl)cc32)CC1 have half-life greater than or equal to 5 min?
Response: f
